tested on: Yersinia pseudotuberculosis; assay: growth AUC normalised to DMSO control (fraction of control); higher = less growth inhibition, active = hit call of the paper; settings: 20 µM
Counter-ions that a name gives are not always drawn.
The following compounds are listed with their measured growth AUC normalised to DMSO control values.

compound	growth AUC normalised to DMSO control
CC(C)(C(=O)c1cccnc1)c1cccnc1	0.989
CN(C)c1ccc(O)c2c1C[C@H]1C[C@H]3[C@H](N(C)C)C(=O)C(C(N)=O)=C(O)[C@@]3(O)C(=O)C1=C2O [Minocycline hydrochloride]	0.0367
CN(CCCCCCCCCCN(C)C(=O)Oc1cccc([N+](C)(C)C)c1)C(=O)Oc1cccc([N+](C)(C)C)c1 [Demecarium bromide]	1.01
CCN(CC)CCOC(=O)C(c1ccccc1)C1CCCCC1 (stereo unspecified) [Drofenine hydrochloride]	1
CC(C)n1c(/C=C/C(O)CC(O)CC(=O)O)c(-c2ccc(F)cc2)c2ccccc21 (stereo unspecified) [Fluvastatin sodium salt]	0.996
C#C[C@]1(OC(C)=O)CC[C@H]2[C@@H]3CCC4=CC(=NO)CC[C@@H]4[C@H]3CC[C@@]21CC (mixture of isomers) [Norgestimate]	0.988
CN1C(C(=O)Nc2ccccn2)=C(O)c2ccccc2S1(=O)=O	1.01
Nc1cc(-c2ccncc2)c[nH]c1=O	1
N=C(NCCCCCCNC(=N)NC(=N)Nc1ccc(Cl)cc1)NC(=N)Nc1ccc(Cl)cc1	0.307
CO[C@@H]1[C@@H](O[C@@H]2O[C@H](C)[C@@H](O[C@H]3C[C@@](C)(O)[C@@H](OC(=O)CC(C)C)[C@H](C)O3)[C@H](N(C)C)[C@H]2O)[C@@H](CC=O)C[C@@H](C)[C@@H](O)/C=C/C=C/C[C@@H](C)OC(=O)C[C@H]1OC(C)=O	0.971
NC(=O)N/N=C/c1ccc([N+](=O)[O-])o1	0.875
O=C(NC(Cc1cc(=O)[nH]c2ccccc12)C(=O)O)c1ccc(Cl)cc1 (stereo unspecified) [Rebamipide]	0.997
Clc1ccccc1C(c1ccccc1)(c1ccccc1)n1ccnc1	0.985
Fc1ccc([C@@H]2CCNC[C@H]2COc2ccc3c(c2)OCO3)cc1 [Paroxetine hydrochloride]	0.991
COc1ccc2[nH]c([S+]([O-])Cc3ncc(C)c(OC)c3C)nc2n1 (stereo unspecified)	0.998
Cc1cccc(Nc2ccccc2C(=O)O)c1C	1

---

test system: P. vulgatus WT; test: growth AUC normalised to DMSO control (median) (fraction of control); higher = less growth inhibition, active = hit call of the paper; details: 20 µM;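 also: active when median AUC fell below 0.1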
Where a name gives a salt, the structure may show the parent alone.
Classes used: 1 = active, 0 = inactive

compound	subjectOfTest	discreteLabel
Cc1ccc(N(CC2=NCCN2)c2cccc(O)c2)cc1 [Phentolamine hydrochloride]	P. vulgatus WT	0
CC(C)(O/N=C(\C(=O)N[C@@H]1C(=O)N2C(C(=O)[O-])=C(C[n+]3ccccc3)CS[C@H]12)c1csc(N)n1)C(=O)O [Ceftazidime pentahydrate]	P. vulgatus WT	1
CN1CCC(OC(c2ccccc2)c2ccccc2)CC1 [Diphenylpyraline hydrochloride]	P. vulgatus WT	0
COc1cc([C@@H]2c3cc4c(cc3[C@@H](O[C@@H]3O[C@@H]5CO[C@@H](C)O[C@H]5[C@H](O)[C@H]3O)[C@H]3COC(=O)[C@H]23)OCO4)cc(OC)c1O [Etoposide]	P. vulgatus WT	0
CN(C)CCC(c1ccc(Br)cc1)c1ccccn1 (configuration not stated) [Brompheniramine maleate]	P. vulgatus WT	0
CC(C)N1CCN(c2ccc(OCC3COC(Cn4cncn4)(c4ccc(Cl)cc4Cl)O3)cc2)CC1 (configuration not stated)	P. vulgatus WT	0
NS(=O)(=O)c1cc2c(cc1C(F)(F)F)NC(Cc1ccccc1)NS2(=O)=O (configuration not stated) [Bendroflumethiazide]	P. vulgatus WT	0
